# System: OCT2 A270S variant;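 also: uptake into HEK293 cells stably overexpressing human OCT2 variants, intracellular enantiomers quantified by chiral HPLC-MS/MS and normalized to total protein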
# METHOD SUMMARY: in vitro
# MEASUREMENT PARAMETERS: human, Stereoselectivity OCT2_A270S, 100 μM racemic substance, two minutes; uptake ratio of enantiomers, given as for (R)
PROPERTY NAME: selectivity ratio at 2 min, 100 μM
Keep the answer to the number alone.

# COMPOUND, PROPERTY NAME, REPORTED
rows = [
    ("COc1cc(C(O)CN)ccc1O (stereo not shown)", "selectivity ratio at 2 min, 100 μM", 1.7),
    ("CNCC(O)c1ccc(O)c(OC)c1 (stereo not shown)", "selectivity ratio at 2 min, 100 μM", 2.26),
    ("CNCC(O)c1ccc(O)cc1 (stereo not shown) [Synephrine]", "selectivity ratio at 2 min, 100 μM", 1),
    ("CNCC(O)c1ccccc1 (stereo not shown)", "selectivity ratio at 2 min, 100 μM", 1.32),
    ("CNC[C@H](O)c1cccc(O)c1", "selectivity ratio at 2 min, 100 μM", 1.16),
    ("NCC(O)c1cccc(O)c1 (stereo not shown)", "selectivity ratio at 2 min, 100 μM", 1.46),
]

Lookup: Provide value of selectivity ratio at 2 min, 100 μM for this record tested with OCT2 A270S variant: NC[C@H](O)c1ccc(O)c(O)c1 [Norepinephrine]
Found: 2.06

====

# TARGET OF ASSAY: OCT3 (Homo sapiens, UniProt O75751)
# Sequence (O75751 whole entry): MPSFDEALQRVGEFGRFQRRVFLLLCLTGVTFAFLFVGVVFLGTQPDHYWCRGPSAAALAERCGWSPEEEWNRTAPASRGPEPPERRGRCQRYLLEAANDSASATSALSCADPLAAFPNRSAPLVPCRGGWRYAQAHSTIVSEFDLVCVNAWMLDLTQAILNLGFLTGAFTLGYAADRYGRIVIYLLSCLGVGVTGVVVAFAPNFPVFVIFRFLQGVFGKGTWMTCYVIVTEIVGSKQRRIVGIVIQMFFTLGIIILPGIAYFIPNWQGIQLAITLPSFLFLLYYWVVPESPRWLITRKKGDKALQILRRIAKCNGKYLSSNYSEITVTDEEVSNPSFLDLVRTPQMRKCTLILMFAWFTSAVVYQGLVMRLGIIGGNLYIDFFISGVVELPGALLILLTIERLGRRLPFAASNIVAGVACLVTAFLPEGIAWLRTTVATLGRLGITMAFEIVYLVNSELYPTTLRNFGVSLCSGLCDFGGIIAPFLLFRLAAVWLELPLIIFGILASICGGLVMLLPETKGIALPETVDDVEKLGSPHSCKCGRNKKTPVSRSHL
# METHOD SUMMARY: Stereoselective uptake into OCT3-overexpressing HEK293 cells;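 also: intracellular accumulation in HEK293 cells measured by chiral HPLC-MS/MS after a 2 min substrate exposure at 37 °C, uptake normalized to total protein (bicinchoninic acid assay)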
# MEASUREMENT PARAMETERS: OCT3; ratio between enantiomers, given as for (R) or for 1 (first-eluting)
PROPERTY NAME: Stereoselectivity Km
State the result as a value with its unit after it.

# MOLECULE, Stereoselectivity Km
rows = [
    ("NC[C@@H](O)c1ccccc1 [(S)-Bisnorephedrine]", "1.08 fold"),
    ("CNC[C@@H](O)c1cccc(O)c1 [(S)-Phenylephrine]", "1.19 fold"),
]

Kindly review the next molecule as well.
Lookup: So what's the measured Stereoselectivity Km for this one? CNCC(O)c1ccc(O)c(OC)c1 (single isomer, unassigned) [Metanephrine-2, Metanephrine]
Found: 1.19 fold

====

# TARGET OF ASSAY: DAT (Homo sapiens)
# Sequence (Q01959 whole entry): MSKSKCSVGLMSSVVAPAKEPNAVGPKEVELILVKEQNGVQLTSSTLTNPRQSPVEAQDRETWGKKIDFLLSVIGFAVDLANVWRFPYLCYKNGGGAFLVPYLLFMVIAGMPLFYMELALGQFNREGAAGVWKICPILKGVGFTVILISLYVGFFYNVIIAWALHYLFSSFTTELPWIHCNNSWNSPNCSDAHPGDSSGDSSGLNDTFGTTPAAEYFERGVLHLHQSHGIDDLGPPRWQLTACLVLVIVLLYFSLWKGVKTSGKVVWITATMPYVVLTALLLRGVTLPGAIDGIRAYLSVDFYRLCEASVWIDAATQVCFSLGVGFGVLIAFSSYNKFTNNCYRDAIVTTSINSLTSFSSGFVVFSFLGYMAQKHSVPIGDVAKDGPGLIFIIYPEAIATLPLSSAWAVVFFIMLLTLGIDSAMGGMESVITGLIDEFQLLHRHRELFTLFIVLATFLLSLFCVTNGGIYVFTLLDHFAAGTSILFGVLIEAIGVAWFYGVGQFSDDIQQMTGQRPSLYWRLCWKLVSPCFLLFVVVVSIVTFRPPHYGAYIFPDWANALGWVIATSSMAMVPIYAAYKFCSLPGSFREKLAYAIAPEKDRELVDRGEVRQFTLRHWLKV
# METHOD SUMMARY: Stereoselective uptake into DAT-overexpressing HEK293 cells;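 also: intracellular accumulation measured by chiral HPLC-MS/MS in stably transfected HEK293 cells, normalized to total protein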
# MEASUREMENT PARAMETERS: read-out: Km ± SEM; HEK293 cells overexpressing human DAT; racemic substrate, two minutes; net uptake minus empty vector control
Criterion: Km meeting or surpassing 20 µM. Met: true (1). Not met: false (0).

# MOLECULE, ASSIGNED CATEGORY
records = [
    ("CNC[C@@H](O)c1cccc(O)c1 [(S)-Phenylephrine]", "true (1)"),
    ("NC[C@@H](O)c1ccccc1 [(S)-Bisnorephedrine]", "false (0)"),
    ("NC[C@H](O)c1ccccc1 [(R)-Bisnorephedrine]", "false (0)"),
    ("NC[C@H](O)c1ccc(O)c(O)c1 [(R)-Norepinephrine]", "true (1)"),
    ("NC[C@@H](O)c1ccc(O)c(O)c1 [(S)-Norepinephrine]", "true (1)"),
]

Next, consider the following molecule.
Lookup: Please check the record CNC[C@H](O)c1cccc(O)c1 [(R)-Phenylephrine] and state if its Km is at or above 20 µM.
Found: true (1)

====

# TARGET OF ASSAY: OCT1 (Homo sapiens)
# Sequence (O15245 1-554): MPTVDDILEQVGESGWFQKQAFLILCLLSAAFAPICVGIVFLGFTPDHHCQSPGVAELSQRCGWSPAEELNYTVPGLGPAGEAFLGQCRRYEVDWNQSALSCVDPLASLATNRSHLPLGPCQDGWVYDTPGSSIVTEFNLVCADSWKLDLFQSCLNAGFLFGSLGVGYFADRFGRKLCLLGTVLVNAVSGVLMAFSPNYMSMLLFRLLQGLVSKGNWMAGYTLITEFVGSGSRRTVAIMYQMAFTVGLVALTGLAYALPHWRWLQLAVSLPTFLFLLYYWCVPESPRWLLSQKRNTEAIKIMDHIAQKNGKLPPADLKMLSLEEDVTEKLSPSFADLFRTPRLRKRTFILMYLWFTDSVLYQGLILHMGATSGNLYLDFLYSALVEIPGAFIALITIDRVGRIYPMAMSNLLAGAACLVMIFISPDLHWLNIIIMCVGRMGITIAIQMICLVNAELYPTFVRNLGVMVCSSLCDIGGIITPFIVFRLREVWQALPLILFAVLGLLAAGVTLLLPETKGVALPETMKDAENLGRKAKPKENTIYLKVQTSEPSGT
# METHOD SUMMARY: Stereoselective uptake into OCT1-overexpressing HEK293 cells
# MEASUREMENT PARAMETERS: human, HEK293 cells stably overexpressing human OCT1, Stereoselectivity ClInt, OCT1; ratio between enantiomers, given as for (R) or for 1 (also 1.00-fold for 1/2)
PROPERTY NAME: selectivity ratio at 2 min
Keep the answer to the number alone.

# COMPOUND, PROPERTY NAME, REPORTED
measured = [
    ("NC[C@H](O)c1ccc(O)cc1 [(R)-Octopamine]", "selectivity ratio at 2 min", 1.05),
]

Lookup: So what's the measured selectivity ratio at 2 min for this one? NC[C@@H](O)c1ccc(O)cc1 [(S)-Octopamine]
Found: 1.05

====

The compounds listed here are annotated with their selectivity ratio at 2 min.
# TARGET OF ASSAY: OCT1 (Homo sapiens, UniProt O15245)
# METHOD SUMMARY: Stereoselective uptake into OCT1-overexpressing HEK293 cells;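 also: enantiomers quantified inside cells by chiral HPLC-MS/MS, uptake normalized to total protein from bicinchoninic acid assay, substrates applied in HBSS+ buffer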
# MEASUREMENT PARAMETERS: human, Stereoselectivity ClInt
Keep the answer to the number alone.

Example entries and their recorded answers appear below.
# COMPOUND, PROPERTY NAME, REPORTED
records = [
    ("NCC(O)c1cccc(O)c1 (single isomer, unassigned)", "selectivity ratio at 2 min", 1.05),
    ("CNC[C@@H](O)c1cccc(O)c1 [(S)-Phenylephrine]", "selectivity ratio at 2 min", 1.11),
    ("CNC[C@H](O)c1cccc(O)c1 [(R)-Phenylephrine]", "selectivity ratio at 2 min", 1.11),
]

Kindly review the next compound as well.
Lookup: So what's the measured selectivity ratio at 2 min for this one? CNCC(O)c1ccc(O)c(OC)c1 (single isomer, unassigned)
Found: 1.16

====

# TARGET OF ASSAY: UniProtKB P23975
# Sequence (P23975 whole entry): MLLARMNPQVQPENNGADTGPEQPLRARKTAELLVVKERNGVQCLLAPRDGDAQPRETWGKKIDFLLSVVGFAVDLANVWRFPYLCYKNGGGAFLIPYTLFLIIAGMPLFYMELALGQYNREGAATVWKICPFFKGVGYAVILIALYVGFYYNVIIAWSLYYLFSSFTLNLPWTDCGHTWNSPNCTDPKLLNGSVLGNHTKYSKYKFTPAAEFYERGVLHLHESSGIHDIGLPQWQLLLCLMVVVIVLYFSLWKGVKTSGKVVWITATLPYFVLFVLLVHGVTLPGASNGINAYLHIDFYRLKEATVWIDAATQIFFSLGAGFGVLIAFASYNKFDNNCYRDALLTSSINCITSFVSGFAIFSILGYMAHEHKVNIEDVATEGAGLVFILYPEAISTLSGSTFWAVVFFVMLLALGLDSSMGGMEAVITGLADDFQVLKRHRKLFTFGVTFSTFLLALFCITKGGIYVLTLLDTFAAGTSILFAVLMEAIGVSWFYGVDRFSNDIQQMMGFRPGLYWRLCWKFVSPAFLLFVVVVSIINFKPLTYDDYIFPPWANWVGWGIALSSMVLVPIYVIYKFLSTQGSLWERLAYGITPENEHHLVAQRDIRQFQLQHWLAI
# METHOD SUMMARY: Stereoselective uptake into NET-overexpressing HEK293 cells;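 also: intracellular enantiomers quantified in cell lysates by chiral HPLC-MS/MS after a 2 min substrate incubation, with uptake normalized to total cellular protein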
# MEASUREMENT PARAMETERS: read-out: Km ± SEM; HEK293 cells overexpressing human NET; racemic substrate, two minutes; net uptake minus empty vector control
PROPERTY NAME: Km (µM)
The response must be a number in µM with no trailing unit.

Example entries and their recorded answers appear below.
# COMPOUND, PROPERTY NAME, VALUE UNITS, REPORTED
measured = [
    ("NC[C@H](O)c1ccccc1 [(R)-Bisnorephedrine]", "Km", "µM", 0.206),
    ("C[C@@H]1NCCc2cc(O)c(O)cc21 [Salsolinol-2, Salsolinol]", "Km", "µM", 102),
    ("NC[C@H](O)c1ccc(O)c(O)c1 [(R)-Norepinephrine]", "Km", "µM", 2.31),
    ("NC[C@@H](O)c1ccccc1 [(S)-Bisnorephedrine]", "Km", "µM", 0.204),
    ("CNC[C@H](O)c1cccc(O)c1 [(R)-Phenylephrine]", "Km", "µM", 5.12),
]

Lookup: So what's the measured Km for this one? CNC[C@@H](O)c1cccc(O)c1 [(S)-Phenylephrine]
Found: 4.16

Lookup: Follow-up item: NC[C@@H](O)c1ccc(O)c(O)c1 [(S)-Norepinephrine]
Found: 3.05

Lookup: Follow-up item: CNC[C@@H](O)c1ccc(O)c(O)c1 [(S)-Epinephrine]
Found: 8.52

Lookup: Follow-up item: C[C@@H]1NCCc2cc(O)c(O)cc21 [Salsolinol-1, Salsolinol]
Found: 90.1

====

The compounds listed here are annotated with their Stereoselectivity ClInt.
# TARGET OF ASSAY: OCT1 (Homo sapiens, UniProt O15245)
# Sequence (O15245 1-554): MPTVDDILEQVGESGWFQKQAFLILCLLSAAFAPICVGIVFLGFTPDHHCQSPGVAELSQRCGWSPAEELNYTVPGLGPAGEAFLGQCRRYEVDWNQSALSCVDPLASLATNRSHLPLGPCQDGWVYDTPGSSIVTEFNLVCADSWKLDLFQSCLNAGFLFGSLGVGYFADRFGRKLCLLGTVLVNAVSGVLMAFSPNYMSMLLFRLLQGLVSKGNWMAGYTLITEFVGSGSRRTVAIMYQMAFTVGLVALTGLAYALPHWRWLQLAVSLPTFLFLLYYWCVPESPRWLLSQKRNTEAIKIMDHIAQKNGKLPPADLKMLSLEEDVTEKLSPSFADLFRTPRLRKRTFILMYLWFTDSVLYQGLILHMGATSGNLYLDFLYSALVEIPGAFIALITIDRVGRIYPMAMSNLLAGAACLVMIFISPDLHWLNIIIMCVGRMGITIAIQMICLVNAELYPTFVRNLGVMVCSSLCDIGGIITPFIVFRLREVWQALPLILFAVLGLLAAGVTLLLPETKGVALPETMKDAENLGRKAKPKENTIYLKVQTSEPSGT
# METHOD SUMMARY: Stereoselective uptake into OCT1-overexpressing HEK293 cells
# MEASUREMENT PARAMETERS: OCT1; ratio between enantiomers, given as for (R) or for 1 (also 1.00-fold for 1/2)
The response must be a number in fold with no trailing unit.

Example entries and their recorded answers appear below.
# COMPOUND, TARGET OF ASSAY, PROPERTY NAME, VALUE UNITS, REPORTED
measured = [
    ("C[C@@H]1NCCc2cc(O)c(O)cc21 [Salsolinol-2, Salsolinol]", "OCT1 (Homo sapiens, UniProt O15245)", "Stereoselectivity ClInt", "fold", 1.00),
    ("NC[C@@H](O)c1ccccc1 [(S)-Bisnorephedrine]", "OCT1 (Homo sapiens, UniProt O15245)", "Stereoselectivity ClInt", "fold", 1.03),
    ("NC[C@H](O)c1ccccc1 [(R)-Bisnorephedrine]", "OCT1 (Homo sapiens, UniProt O15245)", "Stereoselectivity ClInt", "fold", 1.03),
]

Kindly review the next compound as well.
Lookup: So what's the measured Stereoselectivity ClInt for this one? C[C@@H]1NCCc2cc(O)c(O)cc21 [Salsolinol-1, Salsolinol]
Found: 1.00
